# Tested on: Plasmodium berghei
# PROTOCOL SUMMARY: Antiplasmodial activity against luciferase expressing Plasmodium berghei sporozoites infected in human HuH7 cells assessed as reduction in parasite load preincubated for 1 hr followed by parasite infection and measured after 46 hrs by bioluminescence assay
# Type: functional, organism-based
# TEST CONTEXT: Plasmodium berghei, Huh-7
ATTRIBUTE MEASURED: IC50
State the result as a value with its unit after it.

Inquiry: Return reported IC50; argument: `CCOC(=O)c1c(C)nc(OCc2cn(CC(=O)O[C@@H]3/C(C)=C/C[C@@H]4C[C@@H](C[C@]5(CC[C@H](C)[C@@H]([C@@H](C)CC)O5)O4)OC(=O)[C@@H]4C=C(C)[C@@H](O)[C@H]5OC/C(=C\C=C\[C@@H]3C)[C@]54O)nn2)nc1-c1cc(OC)c(OC)cc1[N+](=O)[O-]`
Reply text: 503 nM

###

# Tested on: Plasmodium berghei
# PROTOCOL SUMMARY: Antiplasmodial activity against luciferase expressing Plasmodium berghei sporozoites infected in human HuH7 cells assessed as reduction in parasite load preincubated for 1 hr followed by parasite infection and measured after 46 hrs by bioluminescence assay
# Format: functional, organism-based
ATTRIBUTE MEASURED: IC50 (nM)
Report the value in nM with no unit label.

Inquiry: // map `IVERMECTIN` to recorded IC50 (system: Plasmodium berghei)
Reply text: 1640
